Biological target: CYP1B1 (Homo sapiens, UniProt Q16678)
Test: Inhibition of recombinant human CYP1B1 expressed in bacterial microsomes co-expressing P450 reductase at 3 uM using 7-ethyl-O-resorufin as substrate after 45 mins in presence of NADPH by fluorescence assay relative to control
Conditions: probe 7-ethyl-O-resorufin
Decision: inhibition at 0.75 h, 3 µM >= 8% yields Criterion met, all other cases yield Criterion not met.

# count of solved cases: 5
* C[C@]12CC[C@@H]3c4ccc(OS(N)(=O)=O)cc4CC[C@H]3[C@@H]1C[C@H](CCCNC(=O)C(Cc1ccccc1)NC(=O)Cc1ccccc1)[C@@H]2O (stereo partly drawn) | Criterion met
* C#C[C@]1(O)CC[C@H]2[C@@H]3CCc4cc(O)c(Br)cc4[C@H]3CC[C@@]21C | Criterion met
* COc1cc2c(cc1O)CC[C@@H]1[C@@H]2CC[C@]2(C)C(=O)CC[C@@H]12 | Criterion met
* C[C@]12CC[C@@H]3c4ccc(O)c(F)c4CC[C@H]3[C@@H]1CC[C@@H]2O | Criterion not met
* CCS(=O)(=O)Oc1ccc2c(c1)CC[C@@H]1[C@@H]2CC[C@]2(C)C(=O)CC[C@@H]12 | Criterion not met

Identify whether the reported inhibition at 0.75 h, 3 µM of the following compound is 8% or greater: COc1ccc2c(c1)CC[C@@H]1[C@@H]2CC[C@]2(C)C(=O)CC[C@@H]12
Criterion not met

Identify whether the reported inhibition at 0.75 h, 3 µM of the following compound is 8% or greater: C[C@]12CC[C@@H]3c4ccc([N+](C)(C)[O-])cc4CC[C@H]3[C@@H]1CCC2=O
Criterion met

###

Molecular target: CYP1B1 (Homo sapiens)
Sequence (Q16678 whole entry): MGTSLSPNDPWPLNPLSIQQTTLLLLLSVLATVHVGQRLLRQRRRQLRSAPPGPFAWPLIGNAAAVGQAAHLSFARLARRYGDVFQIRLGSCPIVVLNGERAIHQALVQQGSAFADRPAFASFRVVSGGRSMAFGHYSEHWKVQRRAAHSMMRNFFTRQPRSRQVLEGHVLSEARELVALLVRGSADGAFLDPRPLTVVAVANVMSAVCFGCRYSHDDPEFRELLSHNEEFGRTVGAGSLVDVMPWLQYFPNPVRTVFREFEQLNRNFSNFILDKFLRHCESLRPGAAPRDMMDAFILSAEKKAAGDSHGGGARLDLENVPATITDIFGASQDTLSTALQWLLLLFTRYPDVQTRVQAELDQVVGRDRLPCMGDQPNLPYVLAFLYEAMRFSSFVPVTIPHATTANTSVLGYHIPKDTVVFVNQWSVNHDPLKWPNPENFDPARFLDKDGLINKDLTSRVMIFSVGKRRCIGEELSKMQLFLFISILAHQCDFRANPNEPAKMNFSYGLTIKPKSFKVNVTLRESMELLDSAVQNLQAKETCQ
Assay: Inhibition of recombinant human CYP1B1 expressed in bacterial microsomes co-expressing P450 reductase at 3 uM using 7-ethyl-O-resorufin as substrate after 45 mins in presence of NADPH by fluorescence assay relative to control
Details: probe 7-ethyl-O-resorufin
parameter.measured: inhibition at 0.75 h, 3 µM (%)
A number alone suffices; assume %.

Examples from the recorded data:
* CC(=O)c1ccc(C(=O)N2CCCC2C(=O)NCCCCCCCCCCC[C@@H]2Cc3cc(O)ccc3[C@H]3CC[C@]4(C)[C@@H](O)CC[C@H]4[C@H]23)cc1 (stereo not given in full) | 22.1
* Cc1ccc(S(=O)(=O)/N=S(\C)c2ccc3c(c2)CC[C@@H]2[C@@H]3CC[C@]3(C)C(=O)CC[C@@H]23)cc1 (stereo not given in full) | 0.1
* C[C@]12CC[C@@H]3c4ccc(OC(N)=O)cc4CC[C@H]3[C@@H]1CCC2=O | 9.9
* C[C@]12CC[C@@H]3c4cc([N+](=O)[O-])c(O)c([N+](=O)[O-])c4CC[C@H]3[C@@H]1CC[C@@H]2O | 11.4

Pending compound:
// field: inhibition at 0.75 h, 3 µM; key: C[C@]12CC[C@@H]3c4ccc(OCCBr)cc4CC[C@H]3[C@@H]1CC[C@@H]2O ; value = 11.1

Attribution: ChEMBL document CHEMBL3877258
